TARGET OF ASSAY: HLA-B*15:01
PROCEDURE TEXT: IEDB peptide-MHC binding, purified MHC/direct/fluorescence; filed as Kd, often an IC50 or EC50 that approximates it; bounds were set here for any values at or beyond the usual limits of such assays
CONDITION PARAMETERS: source organism: Brucella suis 1330
pKd: −log10 of the molar value.
READOUT LABEL: pKd

The recorded pKd for entry MRIGSMATL equals ≤ 4.70

----------
TARGET OF ASSAY: HLA-B*46:01
PROCEDURE TEXT: IEDB peptide-MHC binding, purified MHC/direct/fluorescence; filed as Kd, often an IC50 or EC50 that approximates it; bounds were set here for any values at or beyond the usual limits of such assays
CONDITION PARAMETERS: source organism: Camelpox virus CMS
READOUT LABEL: Kd

sequence SSDDIPPRW , Kd observed: ≥ 20 µM

----------
TARGET OF ASSAY: HLA-C*06:02
PROCEDURE TEXT: IEDB peptide-MHC binding, purified MHC/direct/fluorescence; filed as Kd, often an IC50 or EC50 that approximates it; bounds were set here for any values at or beyond the usual limits of such assays
CONDITION PARAMETERS: source organism: Cryptosporidium parvum
pKd: −log10 of the molar value.
READOUT LABEL: pKd

The sequence RYMYIYLFI showed pKd equal to ≤ 4.70

----------
TARGET OF ASSAY: HLA-A*03:01
PROCEDURE TEXT: IEDB peptide-MHC binding, purified MHC/direct/fluorescence; filed as Kd, often an IC50 or EC50 that approximates it; bounds were set here for any values at or beyond the usual limits of such assays
CONDITION PARAMETERS: source organism: Mycobacterium tuberculosis
READOUT LABEL: Kd (nM)
Numbers only, in nM.

Reported Kd ( RLNFFTPTK ) = 5.9

----------
TARGET OF ASSAY: HLA-B*38:01
PROCEDURE TEXT: IEDB peptide-MHC binding, purified MHC/direct/fluorescence; filed as Kd, often an IC50 or EC50 that approximates it; bounds were set here for any values at or beyond the usual limits of such assays
CONDITION PARAMETERS: source organism: Mycobacterium tuberculosis str. Haarlem
pKd: −log10 of the molar value.
READOUT LABEL: pKd

Sample GPAGYTAAL ; pKd observed: ≤ 4.70

----------
TARGET OF ASSAY: HLA-A*68:02
PROCEDURE TEXT: IEDB peptide-MHC binding, purified MHC/competitive/fluorescence; filed as Kd, often an IC50 or EC50 that approximates it; bounds were set here for any values at or beyond the usual limits of such assays
CONDITION PARAMETERS: source organism: Escherichia coli HS
READOUT LABEL: Kd (µM)
Answers are plain numbers, in µM.

The recorded Kd for GEIFGLLGP is 2.64

----------
TARGET OF ASSAY: HLA-A*26:02
PROCEDURE TEXT: IEDB peptide-MHC binding, purified MHC/direct/fluorescence; filed as Kd, often an IC50 or EC50 that approximates it; bounds were set here for any values at or beyond the usual limits of such assays
CONDITION PARAMETERS: source organism: Variola virus
READOUT LABEL: Kd

Summary line: GLYRLNFRR , HLA-A*26:02, reported Kd = ≥ 20 µM

----------
TARGET OF ASSAY: HLA-A*26:01
PROCEDURE TEXT: IEDB peptide-MHC binding, purified MHC/competitive/radioactivity; filed as Kd, often an IC50 or EC50 that approximates it; bounds were set here for any values at or beyond the usual limits of such assays
CONDITION PARAMETERS: source organism: Mammarenavirus guanaritoense
READOUT LABEL: Kd

Form: sequence = GHHTNFESF ; Kd = ≥ 77.9 µM

----------
TARGET OF ASSAY: HLA-A*11:01
PROCEDURE TEXT: IEDB peptide-MHC binding, purified MHC/direct/fluorescence; filed as Kd, often an IC50 or EC50 that approximates it; bounds were set here for any values at or beyond the usual limits of such assays
CONDITION PARAMETERS: source organism: Yersinia pestis
READOUT LABEL: Kd

For YGIPFPGSL the sequence record lists Kd as ≥ 20 µM

----------
TARGET OF ASSAY: HLA-B*46:01
PROCEDURE TEXT: IEDB peptide-MHC binding, purified MHC/competitive/fluorescence; filed as Kd, often an IC50 or EC50 that approximates it; bounds were set here for any values at or beyond the usual limits of such assays
CONDITION PARAMETERS: source organism: Fowlpox virus
pKd: −log10 of the molar value.
READOUT LABEL: pKd

Note to self: pKd recorded for VIMWYNYLF was ≤ 4.70

----------
TARGET OF ASSAY: HLA-C*15:02
PROCEDURE TEXT: IEDB peptide-MHC binding, purified MHC/direct/fluorescence; filed as Kd, often an IC50 or EC50 that approximates it; bounds were set here for any values at or beyond the usual limits of such assays
CONDITION PARAMETERS: source organism: Giardia lamblia ATCC 50803
READOUT LABEL: pKd
Numbers only, as −log10 of the molar value.

For record ITASKDLCF the listed pKd is 5.41

----------
TARGET OF ASSAY: HLA-B*51:01
PROCEDURE TEXT: IEDB peptide-MHC binding, purified MHC/competitive/fluorescence; filed as Kd, often an IC50 or EC50 that approximates it; bounds were set here for any values at or beyond the usual limits of such assays
CONDITION PARAMETERS: source organism: Mycobacterium tuberculosis C
READOUT LABEL: Kd

Measured Kd, TPKIRFWHV : ≥ 20 µM

----------
TARGET OF ASSAY: HLA-A*01:01
PROCEDURE TEXT: IEDB peptide-MHC binding, purified MHC/direct/fluorescence; filed as Kd, often an IC50 or EC50 that approximates it; bounds were set here for any values at or beyond the usual limits of such assays
CONDITION PARAMETERS: source organism: Mycobacterium tuberculosis
pKd: −log10 of the molar value.
READOUT LABEL: pKd

The reported pKd of the sequence AVFLSYIGY was ≤ 4.70

----------
TARGET OF ASSAY: HLA-A*02:01
PROCEDURE TEXT: IEDB peptide-MHC binding, purified MHC/direct/fluorescence; filed as Kd, often an IC50 or EC50 that approximates it; bounds were set here for any values at or beyond the usual limits of such assays
CONDITION PARAMETERS: source organism: Toxoplasma gondii
READOUT LABEL: Kd

Record LPPVVPPLI . Reported Kd: ≥ 20 µM

----------
TARGET OF ASSAY: HLA-A*33:01
PROCEDURE TEXT: IEDB peptide-MHC binding, purified MHC/competitive/radioactivity; filed as Kd, often an IC50 or EC50 that approximates it; bounds were set here for any values at or beyond the usual limits of such assays
CONDITION PARAMETERS: source organism: Dengue virus 1 Brazil/97-11/1997
READOUT LABEL: Kd (nM)
One number for each entry, in nM.

// field: Kd; key: MFAVGLLFRR ; value = 1.66

----------
TARGET OF ASSAY: HLA-A*02:16
PROCEDURE TEXT: IEDB peptide-MHC binding, purified MHC/competitive/fluorescence; filed as Kd, often an IC50 or EC50 that approximates it; bounds were set here for any values at or beyond the usual limits of such assays
CONDITION PARAMETERS: source organism: Coxiella burnetii RSA 493
READOUT LABEL: Kd
Be sure to follow the number with its unit.

Given the sequence FLFLYWPHY and test system HLA-A*02:16, the measured Kd is 1740 nM

----------
TARGET OF ASSAY: HLA-B*57:01
PROCEDURE TEXT: IEDB peptide-MHC binding, purified MHC/competitive/fluorescence; filed as Kd, often an IC50 or EC50 that approximates it; bounds were set here for any values at or beyond the usual limits of such assays
CONDITION PARAMETERS: source organism: Vaccinia virus Copenhagen
pKd: −log10 of the molar value.
READOUT LABEL: pKd

// FTENGPWMY : pKd value = ≤ 4.70

----------
TARGET OF ASSAY: HLA-C*15:02
PROCEDURE TEXT: IEDB peptide-MHC binding, purified MHC/direct/fluorescence; filed as Kd, often an IC50 or EC50 that approximates it; bounds were set here for any values at or beyond the usual limits of such assays
CONDITION PARAMETERS: source organism: Brucella abortus S19
READOUT LABEL: Kd

Summary for this sequence, YWMGGTTYF : Kd is ≥ 20 µM

----------
TARGET OF ASSAY: HLA-B*15:42
PROCEDURE TEXT: IEDB peptide-MHC binding, purified MHC/competitive/fluorescence; filed as Kd, often an IC50 or EC50 that approximates it; bounds were set here for any values at or beyond the usual limits of such assays
CONDITION PARAMETERS: source organism: Rickettsia felis URRWXCal2
pKd: −log10 of the molar value.
READOUT LABEL: pKd

Notebook: FMYALSRAF , pKd read as ≤ 5.30
